Quick record: Ki, Plasminogen (Homo sapiens, UniProt P00747).
Numbers only, in µM.

Cc1cc(I)c(O)c(C(=O)Nc2ccc(C(=N)N)cc2)c1 0.29
Cc1cccc(C(=O)Nc2ccc(C(=N)N)cc2)c1O 18
N=C(N)c1ccc(NC(=O)c2ccc(Cl)cc2O)cc1 27
Cc1ccc(C(=O)Nc2ccc(C(=N)N)cc2)c(O)c1 6
Cc1cc(Br)c(O)c(C(=O)Nc2ccc(NC(=N)N)cc2)c1 205

Now look at this entry.
For record `N=C(N)c1ccc(NC(=O)c2ccccc2O)cc1` the listed Ki is 90

* * *

Assayed Target: Tissue-type plasminogen activator (Homo sapiens)
Sequence (P00750 whole entry): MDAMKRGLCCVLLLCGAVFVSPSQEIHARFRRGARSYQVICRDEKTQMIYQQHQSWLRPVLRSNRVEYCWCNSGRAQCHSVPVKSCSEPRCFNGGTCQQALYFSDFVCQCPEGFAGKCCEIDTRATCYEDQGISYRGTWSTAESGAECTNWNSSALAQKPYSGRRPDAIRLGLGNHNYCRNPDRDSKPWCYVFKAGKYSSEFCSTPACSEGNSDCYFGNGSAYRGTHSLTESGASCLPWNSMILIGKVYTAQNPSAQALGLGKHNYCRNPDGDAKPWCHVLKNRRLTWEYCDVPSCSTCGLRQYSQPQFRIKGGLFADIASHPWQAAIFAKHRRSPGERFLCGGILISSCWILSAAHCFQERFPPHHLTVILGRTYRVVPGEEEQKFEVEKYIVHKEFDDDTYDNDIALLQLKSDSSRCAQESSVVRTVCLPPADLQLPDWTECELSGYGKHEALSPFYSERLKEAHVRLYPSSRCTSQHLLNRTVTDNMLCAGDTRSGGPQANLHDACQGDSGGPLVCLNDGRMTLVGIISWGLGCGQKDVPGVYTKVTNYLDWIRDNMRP
Assay Info: Activation of tissue plasminogen
pKi: −log10 of the molar value.
Give pKi for every item shown.

Here's what some known entries look like.
NC(N)=Nc1ccc(NC(=O)c2ccc(Cl)cc2O)cc1 < 4.02
CC(C)Oc1c(O)c(C(=O)Nc2ccc(NC(=N)N)cc2)cc2ccccc12 < 3.25

Below is a list of compounds. For each, state its recorded pKi.
1. N=C(N)Nc1ccc(NC(=O)c2cc3ccccc3c(I)c2O)cc1
2. CCOc1ccc(C(=O)Nc2ccc(NC(=N)N)cc2)c(O)c1
3. Cc1cc(Br)c(O)c(C(=O)Nc2ccc(NC(=N)N)cc2)c1
4. NC(N)=Nc1ccc(NC(=O)c2cccc(Cl)c2O)cc1
5. NC(N)=Nc1ccc(NC(=O)c2cccc(-c3ccccc3)c2O)cc1

Reply:
1: < 4.02; 2: < 4.02; 3: 3.59; 4: < 4.02; 5: < 4.02

Below is a list of compounds. For each, state its recorded pKi.
1. N=C(N)c1ccc(NC(=O)c2ccccc2O)cc1
2. COc1ccc(O)c(C(=O)Nc2ccc(NC(=N)N)cc2)c1

Reply:
1: 5.00; 2: < 4.02

Below is a list of compounds. For each, state its recorded pKi.
1. Cc1cccc(C(=O)Nc2ccc(NC(=N)N)cc2)c1O
2. Cc1cc(I)c(O)c(C(=O)Nc2ccc(NC(=N)N)cc2)c1
3. Cc1ccc(C(=O)Nc2ccc(NC(=N)N)cc2)c(O)c1
4. N=C(N)Nc1ccc(NC(=O)c2cc3ccccc3c(Br)c2O)cc1

Reply:
< 4.02
< 3.25
< 4.02
< 4.02

* * *

Quick record: pKi, Urokinase-type plasminogen activator (Homo sapiens, UniProt P00749).
Give bare numbers, as −log10 of the molar value.

Here's what some known entries look like.
N=C(N)c1ccc(NC(=O)c2ccccc2O)cc1 5.57
Cc1cc(I)c(O)c(C(=O)Nc2ccc(NC(=N)N)cc2)c1 5.07
N=C(N)c1ccc(NC(=O)c2cccc(Cl)c2O)cc1 6.22
N=C(N)c1ccc(NC(=O)c2cc([N+](=O)[O-])ccc2O)cc1 4.36

Below is a list of molecules. For each, state its recorded pKi.
1. CCOc1ccc(C(=O)Nc2ccc(C(=N)N)cc2)c(O)c1
2. CCOc1ccc(C(=O)Nc2ccc(NC(=N)N)cc2)c(O)c1

Reply:
6.19
5.00

* * *

Assayed Target: Urokinase-type plasminogen activator (Homo sapiens, UniProt P00749)
Label criterion met when Ki is strictly below 3000 nM; otherwise label criterion not met.

Query: Check if Ki falls below 3000 nM for `N=C(N)c1ccc(NC(=O)c2cccc(-c3ccccc3)c2O)cc1` .
Reply: criterion not met

Query: Check if Ki falls below 3000 nM for `Cc1cccc(C(=O)Nc2ccc(C(=N)N)cc2)c1O` .
Reply: criterion met

Query: Check if Ki falls below 3000 nM for `COc1ccc(O)c(C(=O)Nc2ccc(C(=N)N)cc2)c1` .
Reply: criterion not met

Query: Check if Ki falls below 3000 nM for `Cc1ccc(O)c(C(=O)Nc2ccc(C(=N)N)cc2)c1` .
Reply: criterion met

Query: Check if Ki falls below 3000 nM for `Cc1ccc(C(=O)Nc2ccc(C(=N)N)cc2)c(O)c1` .
Reply: criterion met

Query: Check if Ki falls below 3000 nM for `N=C(N)c1ccc(NC(=O)c2ccc(Cl)cc2O)cc1` .
Reply: criterion not met
